Provenance of the data: PubChem BioAssay AID624156

Below is a list of entries, each paired with its recorded ROS induction (% of piperlongumine) value.
# experimental protocol: ROS inducers in U2OS cancer cells, primary screen, cell-based, H2DCF-DA fluorescence (AID 624156);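 also: 0% = DMSO vehicle median and 100% = reference compound median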
# experimental conditions: at 10 µM, hits give high values
Out of some 46,000 compounds screened, about 900 (2%) were called active. Not shown: some 1% with an inconclusive outcome. The full list was thinned out, with actives kept by preference.
readout name: ROS induction (% of piperlongumine) (%)

INSERT INTO measurements (compound, readout_name, value_units, endpoint_value) VALUES
  ('C[C@@H]1CN([C@H](C)CO)C(=O)Cc2cc(NC(=O)Cc3ccccc3)ccc2O[C@H]1CN(C)Cc1ccc(Oc2ccccc2)cc1', 'ROS induction (% of piperlongumine)', '%', 58.8),
  ('Cc1cc(Sc2nnc(C)s2)c2ccccc2n1', 'ROS induction (% of piperlongumine)', '%', 255),
  ('C[C@@H]1CN([C@H](C)CO)C(=O)Cc2cc(NC(=O)Nc3ccccc3)ccc2O[C@H]1CN(C)Cc1ccc(Cl)c(Cl)c1', 'ROS induction (% of piperlongumine)', '%', 13.3),
  ('COc1cccc(CNC(=O)CCn2nc(-c3ccccc3)ccc2=O)c1', 'ROS induction (% of piperlongumine)', '%', -6.11),
  ('CC(C)C1Cc2c(sc3nc(SCC(=O)Nc4ccccc4)nc(N)c23)CO1 (configuration not stated)', 'ROS induction (% of piperlongumine)', '%', 44),
  ('C[C@@H]1CN([C@H](C)CO)C(=O)c2cc(NS(=O)(=O)c3ccc(F)cc3)ccc2O[C@H]1CN(C)C(=O)Nc1cccc2ccccc12', 'ROS induction (% of piperlongumine)', '%', 6.38),
  ('Cc1nn(C)cc1C(=O)c1ccccc1', 'ROS induction (% of piperlongumine)', '%', 36.5),
  ('CC1CCC(NC(=O)c2ccccc2C(=O)O)CC1 (configuration not stated)', 'ROS induction (% of piperlongumine)', '%', -7.64),
  ('CCC(C(=O)Nc1ccc(OC)c(OC)c1)n1c(C)c2cnn(-c3ccccc3)c(=O)c2c1C (configuration not stated)', 'ROS induction (% of piperlongumine)', '%', 6.12),
  ('CCc1cccc(NS(=O)(=O)c2cc(Br)cc3c2N(C(=O)C2CC2)CC3)c1', 'ROS induction (% of piperlongumine)', '%', 31.7),
  ('O=C(N1CCCc2ccccc21)N1c2ccccc2Sc2ccccc21', 'ROS induction (% of piperlongumine)', '%', -12.4),
  ('COCCCNC(=O)[C@@]1(Cc2ccccc2)COC(c2ccc(OCCCO)cc2)=N1', 'ROS induction (% of piperlongumine)', '%', 11.7),
  ('CCOC(=O)c1c(C)nn(-c2ncccc2NC(=O)CCC(=O)O)c1C', 'ROS induction (% of piperlongumine)', '%', -11.2),
  ('COc1ccc(NS(=O)(=O)c2ccc3c4c(cccc24)C(=O)S3)cc1', 'ROS induction (% of piperlongumine)', '%', 35.7),
  ('Cc1cccc(NC(=O)c2nnn(-c3cccc(C(F)(F)F)c3)c2N)c1', 'ROS induction (% of piperlongumine)', '%', -17.1),
  ('C[C@H](CO)N1C[C@H](C)[C@@H](CN(C)Cc2ccc(C(=O)Nc3ccccc3N)cc2)Oc2c(NC(=O)C3CC3)cccc2C1=O', 'ROS induction (% of piperlongumine)', '%', 101),
  ('Cn1c(=O)c2c(nc(SCC(=O)Nc3ccccc3F)n2Cc2ccccc2)n(C)c1=O', 'ROS induction (% of piperlongumine)', '%', 11.1),
  ('N#CCC(=O)N(Cc1ccccc1)C(=O)Nc1cccc(F)c1', 'ROS induction (% of piperlongumine)', '%', -15.5),
  ('C=C1C(=O)O[C@H]2C3=C(C)C[C@H](OC(C)=O)C[C@]3(C)CC[C@@H]12', 'ROS induction (% of piperlongumine)', '%', 210),
  ('Cc1ccc2c(Sc3ccc(Cl)cc3)c(C(=O)NC3CCCC3)[nH]c2c1', 'ROS induction (% of piperlongumine)', '%', -12.5),
  ('O=C(N1CCCCC1)[C@@]1(CCS(=O)(=O)c2ccccc2)N=C(c2ccc(OCCCO)cc2)O[C@H]1c1ccccc1', 'ROS induction (% of piperlongumine)', '%', 97.7),
  ('Cc1ccc(NC(=O)c2ccc(CSc3ccccn3)cc2)c(C)c1', 'ROS induction (% of piperlongumine)', '%', -9.72);

---

# experimental protocol: ROS inducers in U2OS cancer cells, primary screen, cell-based, H2DCF-DA fluorescence (AID 624156);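 also: 0% = DMSO vehicle median and 100% = reference compound median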
# experimental conditions: at 10 µM, hits give high values
About 900 (2%) of roughly 46,000 compounds were called active. Another 1% or so got no clear call; they are omitted. This excerpt belongs to a sample that is enriched for actives.
Below is a list of entries, each paired with its recorded ROS induction (% of piperlongumine) value.
readout name: ROS induction (% of piperlongumine) (%)

INSERT INTO assay_data (compound, readout_name, endpoint_value) VALUES
  ('Cc1cccc(N2CCN(C(=O)CC3(CC4=NS(=O)(=O)c5ccccc5N4)CCCC3)CC2)c1C', 'ROS induction (% of piperlongumine)', 172),
  ('O=C1O[C@@H](c2ccccc2)[C@@H](c2ccccc2)N2[C@@H](c3ccc(OCCO)cc3)[C@]3(C(=O)Nc4ccc(C#CCCO)cc43)[C@@H](C(=O)O)[C@H]12', 'ROS induction (% of piperlongumine)', 0.895),
  ('CCOC(=O)C1CCN(C(=O)CN2C(=O)c3ccccc3C2=O)CC1', 'ROS induction (% of piperlongumine)', -6.98),
  ('COc1cc2c(cc1NC(=O)CCC1CCCCC1)oc1ccccc12', 'ROS induction (% of piperlongumine)', -18.8),
  ('COc1ccc(NC(=S)NCC(c2ccccc2)c2c[nH]c3ccccc23)cc1 (stereo not given)', 'ROS induction (% of piperlongumine)', 4.82),
  ('CC(=O)Nc1ccc(NC(=O)COc2ccccc2C(=O)Nc2cccc(Cl)c2Cl)cc1', 'ROS induction (% of piperlongumine)', -10),
  ('Cc1c(C(=O)N(Cc2ccccc2)Cc2cccnc2)cnn1-c1ccc(F)cc1', 'ROS induction (% of piperlongumine)', -9.45),
  ('COC(=O)c1sccc1NC(=O)Cc1noc2ccc(C)cc12', 'ROS induction (% of piperlongumine)', -3.41),
  ('Cc1c(S(=O)(=O)Nc2ccc(Cl)cc2)sc2ccc(Cl)cc12', 'ROS induction (% of piperlongumine)', -12.9),
  ('C[C@H]1CN([C@@H](C)CO)C(=O)CCCn2cc(nn2)CO[C@H]1CN(C)S(=O)(=O)c1ccc2ccccc2c1', 'ROS induction (% of piperlongumine)', 9.35);
